pKd values by entry
# Assay System: T1, PUF4 RNA-binding domain (Saccharomyces cerevisiae, UniProt P25339 537-888)
# T1 sequence: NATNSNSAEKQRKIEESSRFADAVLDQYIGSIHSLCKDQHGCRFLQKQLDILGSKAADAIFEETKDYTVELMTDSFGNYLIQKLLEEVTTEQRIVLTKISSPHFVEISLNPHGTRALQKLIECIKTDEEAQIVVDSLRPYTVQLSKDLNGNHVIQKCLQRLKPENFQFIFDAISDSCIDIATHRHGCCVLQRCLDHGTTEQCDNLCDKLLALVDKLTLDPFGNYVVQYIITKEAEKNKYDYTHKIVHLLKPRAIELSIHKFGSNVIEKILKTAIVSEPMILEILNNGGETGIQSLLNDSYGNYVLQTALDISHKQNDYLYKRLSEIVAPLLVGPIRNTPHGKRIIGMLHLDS
# Assay Info: Mg; RNA-MaP; 20 mM Na-HEPES pH 7.4, 30 mM KOAc, 0.75 mM MgCl2, 0.1% Tween-20, 5% glycerol, 0.1 mg/mL BSA, 2 mM DTT; 25 C; 0.0125-409.6 nM protein
# Test Conditions: tags: N-His6-TEV cleaved; C-SNAP kept, Cy3B-labelled; label: tethered on chip by stalled RNA polymerase
Recall that pKd is obtained by taking minus log10 of the concentration measured in molar.

Examples with answers:
1. UCUCUUUCUGUAUAUUAUGUCUCUU (ssRNA) [Id_ii_S1_P4E.2_K4.1_C4.2_[C-2T]_[T-1C]_H4.1_A4.1_F4.1_T4.2_[G10T]_[T11G]]
9.02
2. Ia_S4_P4E.1_K4.1_C4.1_H4.1_[A4G]_A4.1_F4.1_T4.1 (ssRNA) RNA: UUUGACAACUGAUCGUUCUUUCUUGUGUAUUAUUCUUUCUCGAUCAGUUGUCUUU
8.90
3. Id_ii_S4_P5E.4_K5.3_C5.2_[C-2A]_H5.3_A5.1_F5.1_T5.2_[A12G] (ssRNA) RNA: UUUGACAACUGAUCGUUCUUUCUAUACACUUAUUAUGUUCUUUCUCGAUCAGUUGUCUUU
5.82
4. UCUCUUUGUAGUAAUUCUCUU (ssRNA) [Ic_S1_P4E.1_K4.1_C4.1_H4.1_A4.1_[T5G]_[A6T]_[T7A]_F4.1_[T8A]_[A9T]_T4.1]
5.83
5. Ia_S4_P3E.1_K3.1_C3.1_H3.1_A3.1_F3.1_[A8G]_T3.1 (ssRNA) RNA: UUUGACAACUGAUCGUUCUUUCUUGUAUAUGUUCUUUCUCGAUCAGUUGUCUUU
8.08
6. Id_iii_S4_P3E.9_K3.5_C3.3_[T-3G]_H3.1_A3.2_F3.2_T3.2 (ssRNA) RNA: UUUGACAACUGAUCGUUCUUUCUGCUUGUAAAAAUAUUCUUUCUCGAUCAGUUGUCUUU
7.59
7. Id_iii_S2_P3E.9_K3.5_C3.3_[T-1A]_H3.1_A3.2_F3.2_T3.2 (ssRNA) RNA: UUUGAUUAAUAUGAUAUCGUUCUUUCUUCAUGUAAAAAUAUUCUUUCUCGAUAUCAUAUUAAUCUUU
7.54
8. Ic_S2_P3E.1_K3.1_C3.1_H3.1_A3.1_[T5C]_F3.1_[T7A]_[A8C]_T3.1 (ssRNA) RNA: UUUGAUUAAUAUGAUAUCGUUCUUUCUUGUACAACUUCUUUCUCGAUAUCAUAUUAAUCUUU
7.62

pKd reported for this binder Ib_S2_P5E.1_K5.1_C5.1_H5.1_[A4C]_A5.1_F5.1_[A10T]_T5.1 (ssRNA) RNA: UUUGAUUAAUAUGAUAUCGUUCUUUCUUGUCUUAUUUUUCUUUCUCGAUAUCAUAUUAAUCUUU : 6.75

Looking up Ic_S2_P3E.1_K3.1_C3.1_H3.1_A3.1_[T5C]_F3.1_[T7G]_[A8T]_T3.1 (ssRNA) RNA: UUUGAUUAAUAUGAUAUCGUUCUUUCUUGUACAGUUUCUUUCUCGAUAUCAUAUUAAUCUUU , I found its pKd recorded as 7.88

Ib_S2_P4E.1_K4.1_C4.1_H4.1_A4.1_[A6G]_F4.1_[A9G]_T4.1 (ssRNA) RNA: UUUGAUUAAUAUGAUAUCGUUCUUUCUUGUAUGUUGUUCUUUCUCGAUAUCAUAUUAAUCUUU yielded pKd of 7.58

Kindly note the recorded pKd for UCUCUUAUUAUAUAUUACAUCUCUU (ssRNA) [Id_ii_S1_P4E.3_K4.2_C4.2_[C-2A]_H4.2_A4.1_F4.1_T4.2_[G10C]_[T11A]] , which is 7.37

The reported pKd of the binder Id_ii_S2_P5E.3_K5.2_C5.2_[C-2T]_H5.2_A5.1_F5.1_T5.2_[T11G]_[A12C] (ssRNA) RNA: UUUGAUUAAUAUGAUAUCGUUCUUUCUUUUAUAUUAUUAGCUUCUUUCUCGAUAUCAUAUUAAUCUUU was 6.66

Form field pKd, entry Id_ii_S2_P5E.3_K5.2_C5.2_[C-2T]_[T-1G]_H5.2_A5.1_F5.1_T5.2_[A12T] (ssRNA) RNA: UUUGAUUAAUAUGAUAUCGUUCUUUCUUGUAUAUUAUUAUUUUCUUUCUCGAUAUCAUAUUAAUCUUU : 9.53

The recorded pKd for entry ACAAACUCUCUCGUAUAUUAACAAAC (ssRNA) [Ie_S3_P4E.1_K4.1_C4.1_H4.1_[+1CTCTC]_A4.1_F4.1_T4.1] equals 7.16

Reported pKd ( UCUCUUUGUAUAUUAUUAACUCUCUU (ssRNA) [Id_ii_S1_P5E.3_K5.2_C5.2_[C-2T]_[T-1G]_H5.2_A5.1_F5.1_T5.2_[T11A]_[A12C]] ) = 9.26

Cited source for all entries: paper PMC9352680
